tested on: TK-10 renal; assay: NCI tumour cell line growth inhibition, 48 h
property.label: TGI (µM)
Answer with a number only, understood to be in µM.

Below: 3 compounds and their reported TGI.
| compound | TGI / µM |
| --- | --- |
| O=C(N/N=C/c1cc(Br)cc(Br)c1[O-])c1ccccc1O.O=C(N/N=C/c1cc(Br)cc(Br)c1[O-])c1ccccc1O.[Cu+2] | 1.58 |
| NC(CCC(=O)NC(CSCC1C(=O)Nc2ccccc21)C(=O)NCC(=O)O)C(=O)O (centres undefined) | 18.9 |
| C#Cc1c(I)n(C2OC(CO[Si](C)(C)C(C)(C)C)C3OC(C)(C)OC32)c(=O)[nH]c1=O (centres undefined) | 26.5 |

Next item in the queue.
Asked: Fill in the recorded TGI for this compound, with TK-10 renal as test system: "CC1=C(O)C(=O)C=C2C1=CC=C1[C@@]2(C)CC[C@@]2(C)[C@@H]3C[C@](C)(C(=O)O)CC[C@]3(C)CC[C@]12C"
Given back: 0.0804

----------
tested on: BT-549 breast; assay: NCI tumour cell line growth inhibition, 48 h
property.label: TGI

Worked examples follow.
| compound | system.under.test | result |
| --- | --- | --- |
| CC(C)(Cl)C(Br)CCC(=CCCl)CBr (mixture of isomers) | BT-549 breast | 6.24 µM |
| CC(=O)O[C@H]1CC[C@@]2(C)C(=CC[C@H]3[C@@H]4C[C@H](N5CCOCC5)[C@H](OC(C)=O)[C@@]4(C)CC[C@@H]32)C1 | BT-549 breast | > 100 µM |
| CSc1cnc2ccccc2c1SC1CN(Cc2ccccc2)c2ccccc2C1=O (centres undefined) | BT-549 breast | > 100 µM |

Asked: For the compound Cn1c2ccccc2c(=O)c2cccc(C(=O)NC(CCCN=C(N)N)C(=O)O)c21 (centres undefined) , what TGI is on record?
Given back: > 100 µM

----------
test system: HOP-92 NSCLC; test: NCI tumour cell line growth inhibition, 48 h
TGI values by entry

Asked: Please report the recorded TGI for "O=C1CCC(O)=C1N=Nc1ccccc1" .
Given back: > 100 µM

Asked: Entry CSC(C1c2ccccc2N(c2ccc(C)cc2)c2[nH]c(=O)n(C)c(=O)c21)S(=O)(=O)c1ccc(C)cc1 (configuration not stated) has what TGI?
Given back: > 100 µM

Asked: Look at this molecule and give its reported TGI. "O=c1c(C(c2ccc(Cl)cc2)c2c(O)c3ccccc3n(-c3ccccc3)c2=O)c(O)c2ccccc2n1-c1ccccc1"
Given back: > 100 µM

Asked: Entry "CCOC(=O)NC(Nc1ccc([N+](=O)[O-])cc1)(C(F)(F)F)C(F)(F)F" : reported TGI = ?
Given back: > 100 µM

Asked: Item under review: O=C1OC2CCCC[C@@H]2C2C[C@]34CCCCC3[C@@H](C(=O)O4)C12 (some centres not stated) . Reported TGI?
Given back: > 100 µM

Asked: I'd like to know its TGI. The molecule in question is C=CCOc1ccc(C2(O)c3ccccc3C3=NCCCN32)cc1 (configuration not stated)
Given back: > 100 µM

----------
test system: HOP-62 NSCLC; assay: NCI tumour cell line growth inhibition, 48 h
property.label: TGI

Solved entries (count: 4):
| compound | TGI |
| --- | --- |
| CC(=O)OCC1OC(n2c3c(cc(C#N)c2=S)CCCCC3)C(OC(C)=O)C(OC(C)=O)C1OC(C)=O (stereo unspecified) | > 100 µM |
| O=C1Nc2ccc(F)cc2/C1=C/c1ccc[nH]1 | > 25 µM |
| CC(=O)NC1c2ccccc2C(C)(C)C12CCC1(CC2)OCCO1 (stereo unspecified) | > 100 µM |
| Cc1ccc(S(=O)(=O)NC(=O)N[C@@H](Cc2cnc[nH]2)C(=O)O)cc1 | > 100 µM |

Asked: Kindly state the measured TGI obtained for "C=CCc1ccc(Oc2cc(CC=C)c3c(c2O)O[C@@H](CO)[C@H]3c2ccc(O)c(-c3cc(CC=C)ccc3O)c2)cc1" with HOP-62 NSCLC.
Given back: > 100 µM

Asked: Write down the reported TGI of "CC(=O)[C@@]1(O)CC[C@H]2[C@@H]3C[C@H](C)C4=CC(=O)C=C[C@]4(C)[C@@]3(F)[C@@H](O)C[C@@]21C" , test system: HOP-62 NSCLC.
Given back: > 100 µM
